Measured EC50, listed per entry.
Tested on: HCV replicons (Huh-7 luc/neo cells, NS3-NS5B regions of HCV type 1b)
Test: Replicon assay (Huh-Luc luciferase, HCV RNA replication)
Type: cell-based
Conditions: Hepatitis C virus, Huh-7, 72 h; Huh-Luc cells, three days incubation, luciferase activity; read-out: EC50 Replicon assay
readout-name: EC50

[[record]]
query_smiles = "Cc1ccc(F)c(NC(=O)O[C@@H]2C[C@H]3C(=O)N[C@]4(C(=O)NS(=O)(=O)C5CC5)C[C@H]4/C=C\\CCCCN(C)C(=O)[C@@H]3C2)c1"
readout_name = "EC50"
observed_value = "1000 to 10000 nM"

[[record]]
query_smiles = "COc1cccc(NC(=O)O[C@@H]2C[C@H]3C(=O)N[C@]4(C(=O)NS(=O)(=O)C5(C)CC5)C[C@H]4/C=C\\CCCCN(C)C(=O)[C@@H]3C2)c1"
readout_name = "EC50"
observed_value = "200 to 990 nM"

[[record]]
query_smiles = "CN1CCCC/C=C\\[C@@H]2C[C@@]2(C(=O)NS(=O)(=O)C2(C)CC2)NC(=O)[C@@H]2C[C@@H](OC(=O)Nc3cccc(C#N)c3)C[C@H]2C1=O"
readout_name = "EC50"
observed_value = "0.5 to 199 nM"


###

System: HCV replicons (Huh-7 luc/neo cells, NS3-NS5B regions of HCV type 1b)
Assay: Replicon assay (Huh-Luc luciferase, HCV RNA replication)
Assay type: cell-based
Settings: Hepatitis C virus, Huh-7, 72 h; Huh-Luc cells, three days incubation, luciferase activity; read-out: EC50 Replicon assay
Text: The compounds of formula (I) were examined for activity in the inhibition of HCV RNA replication in a cellular assay. […] The cellular assay was based on a bicistronic expression construct, as described by Lohmann et al. (1999) Science vol. 285 pp. 110-113 with modifications described by Krieger et al. (2001) Journal of Virology 75: 4614-4624, in a multi-target screening strategy. In essence, the method was as follows. […]
pEC50: −log10 of the molar value.
readout-name: pEC50

[[record]]
molecule = "Cc1ccc(C#N)c(NC(=O)O[C@@H]2C[C@H]3C(=O)N[C@]4(C(=O)NS(=O)(=O)C5CC5)C[C@H]4/C=C\\CCCCN(C)C(=O)[C@@H]3C2)c1"
observed_value = "6.00 to 6.70"

[[record]]
molecule = "CN1CCCCC=CC2CC2(C(=O)NS(=O)(=O)C2CC2)NC(=O)C2CC(OC(=O)Nc3ccccc3C#N)CC2C1=O (centres unmarked)"
observed_value = "< 5.00"

[[record]]
molecule = "COc1ccc(C#N)cc1NC(=O)OC1CC2C(=O)NC3(C(=O)NS(=O)(=O)C4(C)CC4)CC3C=CCCCCN(C)C(=O)C2C1 (centres unmarked)"
observed_value = "< 5.00"

[[record]]
molecule = "CN1CCCC/C=C\\[C@@H]2C[C@@]2(C(=O)NS(=O)(=O)C2CC2)NC(=O)[C@@H]2C[C@@H](OC(=O)Nc3ccccc3Oc3ccccc3)C[C@H]2C1=O"
observed_value = "5.00 to 6.00"

[[record]]
molecule = "CN1CCCC/C=C\\[C@@H]2C[C@@]2(C(=O)NS(=O)(=O)C2CC2)NC(=O)[C@@H]2C[C@@H](OC(=O)Nc3cccc(Oc4ccccc4)c3)C[C@H]2C1=O"
observed_value = "5.00 to 6.00"

[[record]]
molecule = "COC(=O)c1cccc(NC(=O)O[C@@H]2C[C@H]3C(=O)N[C@]4(C(=O)NS(=O)(=O)C5CC5)C[C@H]4/C=C\\CCCCN(C)C(=O)[C@@H]3C2)c1"
observed_value = "5.00 to 6.00"

[[record]]
molecule = "COc1ccccc1NC(=O)O[C@@H]1C[C@H]2C(=O)N[C@]3(C(=O)NS(=O)(=O)C4CC4)C[C@H]3/C=C\\CCCCN(C)C(=O)[C@@H]2C1"
observed_value = "5.00 to 6.00"

[[record]]
molecule = "Cc1cccc(NC(=O)O[C@@H]2C[C@H]3C(=O)N[C@]4(C(=O)NS(=O)(=O)C5CC5)C[C@H]4/C=C\\CCCCN(C)C(=O)[C@@H]3C2)c1"
observed_value = "< 5.00"

